Cited source: patent US4159328A

Each record here notes measured Mortality.
# System: cirrus red mite (Panonychus citri McGregor)
# testSummary: Test Example 4: activity to citrus red mite (Rothamstead method)
# Type: in vivo
# Set-up: concentration or dose not given beside the values
# experimentalParameters: two days after treatment, 25° C.; 2880 min
Give your result in % as a bare value.

Solved entries:
{"columns": ["compound", "testTarget", "unitAbbreviation", "Mortality"],
 "data": [
  ["C=CCN1C(=O)N(c2cccc(Cl)c2)CSC1=NC(C)(C)C [Compound 218]", "cirrus red mite (Panonychus citri McGregor)", "%", 100],
  ["CCN1CSC(=NC(C)(C)C)N(C)C1=O [Compound 6]", "cirrus red mite (Panonychus citri McGregor)", "%", 80]
]}

Per the records, this compound ( Cc1ccc(N2CSC(=NC(C)C)N(C)C2=O)cc1 [Compound 310] ) has Mortality equal to 100

Lookup result for CC(C)N1C(=O)N(c2ccccc2)CSC1=NC(C)(C)C [Compound 145] ; measured Mortality: 100

Looking up CC(C)N1C(=O)N(C(C)(C)C)CSC1=NC(C)(C)CC(C)(C)C [Compound 48] , I see its Mortality listed as 100

The compound listed as CN=C1SCN(c2ccccc2)C(=O)N1C [Compound 115] shows Mortality equal to 100

Documented Mortality of CN=C1SCN(C(C)(C)C)C(=O)N1c1ccc(F)cc1 [Compound 71] : 50

Entry under test: CCOc1ccc(N2CSC(=NC(C)(C)C)N(C(C)CC)C2=O)cc1 (stereo not drawn) [Compound 368] . Its Mortality was 100

For record CCCCN1CSC(=NC(C)C)N(C)C1=O [Compound 25] the listed Mortality is 80

* * *

# System: cirrus red mite (Panonychus citri McGregor)
# testSummary: Test Example 4: activity to citrus red mite (Rothamstead method)
# Assay type: in vivo
# Design: concentration or dose not given beside the values
# experimentalParameters: two days after treatment, 25° C.; 2880 min
quantity: Mortality (%)
Entry rule: numbers only, all in %.

{"columns": ["compound", "Mortality / %"],
 "data": [
  ["COc1ccc(Cl)cc1N1C(=O)N(Cc2ccccc2)CSC1=NC(C)C [Compound 87]", 100],
  ["CN=C1SCN(C(C)(C)C)C(=O)N1C [Compound 31]", 100],
  ["CC(C)N=C1SCN(C(C)C)C(=O)N1C [Compound 18]", 100],
  ["CCN1C(=O)N(c2ccccc2)CSC1=NC(C)(C)C [Compound 131]", 100],
  ["CCCN=C1SCN(Cc2ccccc2)C(=O)N1CCC [Compound 56]", 100],
  ["C=CCN1CSC(=NC)N(C)C1=O [Compound 9]", 50]
]}

Reported Mortality of CCCN=C1SCN(C(C)(C)C)C(=O)N1C [Compound 32] : 100

CC(C)N=C1SCN(C(C)(C)C)C(=O)N1c1ccccc1 [Compound 75] has a reported Mortality of 50

Given item CN=C1SCN(C(C)(C)CC(C)(C)C)C(=O)N1c1ccccc1 [Compound 88] , the value recorded as its Mortality is 100

// sample CCN=C1SCN(C(C)C)C(=O)N1CC [Compound 23] , its Mortality was 80

Short answer for CCC(C)N=C1SCN(C(C)(C)C)C(=O)N1C (centres unmarked) [Compound 35] : Mortality was 100

* * *

# System: cirrus red mite (Panonychus citri McGregor)
# testSummary: Test Example 4: activity to citrus red mite (Rothamstead method)
# Assay type: in vivo
# Parameters: concentration or dose not given beside the values
# experimentalParameters: two days after treatment, 25° C.; 2880 min
quantity: Mortality
Answer shape: numeric part, then the unit.

{"columns": ["compound", "testTarget", "Mortality"],
 "data": [
  ["CN=C1SCN(c2ccc(C)cc2)C(=O)N1C", "cirrus red mite (Panonychus citri McGregor)", "100%"],
  ["C=CCN1C(=O)N(c2cccc(Cl)c2)CSC1=NCc1ccccc1", "cirrus red mite (Panonychus citri McGregor)", "100%"],
  ["CCC(C)N1CSC(=NC(C)C)N(C)C1=O (centres unmarked)", "cirrus red mite (Panonychus citri McGregor)", "100%"],
  ["Cc1ccccc1N=C1SCN(c2ccccc2)C(=O)N1C", "cirrus red mite (Panonychus citri McGregor)", "100%"],
  ["CCCCCCCCN1CSC(=NC(C)C)N(C)C1=O", "cirrus red mite (Panonychus citri McGregor)", "100%"],
  ["CCCCCCN1CSC(=NC(C)C)N(C(C)C)C1=O", "cirrus red mite (Panonychus citri McGregor)", "50%"]
]}

Field Mortality (entry CN1C(=O)N(C(C)(C)C)CSC1=NC(C)(C)C ) reads 100%

In plain terms, CCCCCCN=C1SCN(c2ccc(F)cc2)C(=O)N1CCC has a documented Mortality of 100%

// recorded Mortality for CC(C)N=C1SCN(C(C)(C)CC(C)(C)C)C(=O)N1C : 100%

* * *

// reported mortality at 100 ppm for each item listed
# Test system: larvae of 28-spotted lady beetle (Epilachna vigintioctopunctana Fabricius)
# testSummary: Test Example 8: insecticidal activity against larvae of 28-spotted lady beetle
# Assay type: in vivo
# experimentalParameters: 120 h
Lab book: enter the figure in %, no units written.

{"columns": ["molecule", "quantity", "reportedValue"],
 "data": [
  ["CCC(C)N1C(=O)N(c2ccccc2)CSC1=NC(C)(C)C (stereo not drawn)", "mortality at 100 ppm", 100],
  ["CC(C)N1C(=O)N(c2ccc([N+](=O)[O-])cc2)CSC1=NC(C)(C)C", "mortality at 100 ppm", 80],
  ["CCC(C)N=C1SCN(c2ccccc2)C(=O)N1C(C)CC (stereo not drawn)", "mortality at 100 ppm", 100],
  ["CCN1C(=O)N(c2ccccc2)CSC1=NC(C)(C)C", "mortality at 100 ppm", 100],
  ["CC(C)N1C(=O)N(c2ccccc2)CSC1=NC(C)(C)CC(C)(C)C", "mortality at 100 ppm", 90],
  ["CCC(C)N1C(=O)N(c2ccccc2Cl)CSC1=NC(C)(C)C (stereo not drawn)", "mortality at 100 ppm", 100]
]}

The value of mortality at 100 ppm measured for the molecule CCC(C)N1C(=O)N(c2ccc(Cl)cc2)CSC1=NC(C)(C)C (stereo not drawn) turned out to be 100

* * *

# testSummary: mammalian acute toxicity
# experimentalParameters: mouse, in vivo, mice, male
quantity: LD50

{"columns": ["molecule", "LD50"],
 "data": [
  ["Cc1ccc(N2CSC(=NC(C)(C)C)N(C(C)C)C2=O)cc1 [Compound 318]", "≥ 10000 mg/kg"]
]}

Consider CC(C)N1C(=O)N(c2ccccc2)CSC1=NC(C)(C)C [Compound 145] . Its measured LD50 is ≥ 10000 mg/kg

* * *

Mortality overview
# Test system: cirrus red mite (Panonychus citri McGregor)
# testSummary: Test Example 4: activity to citrus red mite (Rothamstead method)
# Format: in vivo
# Parameters: concentration or dose not given beside the values
# experimentalParameters: two days after treatment, 25° C.; 2880 min

Note to self: Mortality recorded for CN=C1SCN(C(C)(C)C)C(=O)N1c1ccccc1 was 80%

Entry CCC(C)N1C(=O)N(c2ccccc2Cl)CSC1=NC(C)(C)C (centres unmarked) , Mortality reported as 100%

For record CC(C)N=C1SCN(c2ccccc2)C(=O)N1C the listed Mortality is 100%

For CCCN1CSC(=NC(C)C)N(C(C)C)C1=O the compound record lists Mortality as 50%

CN=C1SCN(C(C)C)C(=O)N1c1ccc(Cl)cc1C yielded Mortality of 50%

* * *

# Tested on: larvae of 28-spotted lady beetle (Epilachna vigintioctopunctana Fabricius)
# testSummary: Test Example 8: insecticidal activity against larvae of 28-spotted lady beetle
# Format: in vivo
# experimentalParameters: 120 h
Below: a set of entries, each annotated with reported mortality at 100 ppm.
Express the result in % but write the number alone.

{"columns": ["molecule", "mortality at 100 ppm / %"],
 "data": [
  ["CCC(C)N1C(=O)N(c2ccccc2C)CSC1=NC(C)(C)C (centres unmarked)", 100],
  ["COc1ccc(N2CSC(=NC(C)C)N(C(C)C)C2=O)cc1", 100],
  ["CC(C)CN1C(=O)N(c2ccccc2)CSC1=NC(C)(C)C", 80],
  ["C=CCN1C(=O)N(c2ccccc2)CSC1=NC(C)(C)C", 100],
  ["CC(C)(C)N=C1SCN(c2ccccc2)C(=O)N1C1CCCCC1", 100]
]}

Short answer on larvae of 28-spotted lady beetle (Epilachna vigintioctopunctana Fabricius) for CC(C)N=C1SCN(c2cccc(Cl)c2)C(=O)N1C(C)C , mortality at 100 ppm: 100

Form field mortality at 100 ppm for item C=CCN1C(=O)N(c2ccccc2)CSC1=NC(C)C on larvae of 28-spotted lady beetle (Epilachna vigintioctopunctana Fabricius): 100

Result for CCCN1C(=O)N(c2ccccc2)CSC1=NC(C)CC (centres unmarked) , tested on larvae of 28-spotted lady beetle (Epilachna vigintioctopunctana Fabricius), mortality at 100 ppm: 50

Log: larvae of 28-spotted lady beetle (Epilachna vigintioctopunctana Fabricius), molecule CC(C)CN=C1SCN(c2ccccc2)C(=O)N1CC(C)C , mortality at 100 ppm = 100

Per the reported larvae of 28-spotted lady beetle (Epilachna vigintioctopunctana Fabricius) data, CCC(C)N1C(=O)N(c2ccc(C)cc2)CSC1=NC(C)(C)C (centres unmarked) has mortality at 100 ppm of 100

Measured on larvae of 28-spotted lady beetle (Epilachna vigintioctopunctana Fabricius), CC(C)N=C1SCN(c2ccc(Cl)cc2Cl)C(=O)N1C(C)C has a documented mortality at 100 ppm of 80
